assay.name: Average particle size measurement (Malvern Mastersizer 2000, particle size distribution)
Type: physicochemical
protocol.conditions: Sonicated material with no milling
recorded.endpoint: D(V, 0.5) (µm)
Write the number in µm without appending the unit.

Ask: So what does the record say about D(V, 0.5) for CCCc1nc2c(C)cc(-c3nc4ccccc4n3C)cc2n1Cc1ccc(-c2ccccc2C(=O)O)cc1 [Example 7, Telmisartan] ?
Result: 8.1

====

assay.name: Average particle size measurement (Malvern Mastersizer 2000, particle size distribution)
Type: physicochemical
protocol.conditions: Ground material
recorded.endpoint: D(V, 0.1) (µm)
Write the number in µm without appending the unit.

Ask: So what does the record say about D(V, 0.1) for CCCc1nc2c(C)cc(-c3nc4ccccc4n3C)cc2n1Cc1ccc(-c2ccccc2C(=O)O)cc1 [Example 7, Telmisartan] ?
Result: 0.7

====

assay.name: Average particle size measurement (Malvern Mastersizer 2000, particle size distribution)
Type: physicochemical
protocol.conditions: Sonicated material with no milling
recorded.endpoint: D(V, 0.1) (µm)
Write the number in µm without appending the unit.

Ask: So what does the record say about D(V, 0.1) for CCCc1nc2c(C)cc(-c3nc4ccccc4n3C)cc2n1Cc1ccc(-c2ccccc2C(=O)O)cc1 ?
Result: 0.8
